Known Log10 Count Rate of a selection of substances
- procedure text: Turbidity, derived count rate of scattered light
- Format: physicochemical
- condition set: turbidity, Log10 of derived count rate of scattered light; Figure 3A source data
// no unit, no text: just the number

Input: Query (substance): CKFKFQFW ; field requested: Log10 Count Rate
Output: 4.466

Input: Need Log10 Count Rate of KIKIQINMWQ , thanks.
Output: 3.342

Input: Log10 Count Rate lookup needed for CKWKWQW , thanks.
Output: 3.876

Continuing:
Input: Value lookup for Log10 Count Rate; key = CRFRFQF
Output: 2.592

Input: Using the record for KIKIQIMQWN , report its Log10 Count Rate.
Output: 3.343

Input: Recorded Log10 Count Rate of KAKAQANMWQ , please.
Output: 1.749

Input: What does the record list as Log10 Count Rate for NMWQKIKIQI ?
Output: 4.001

Input: Consider the substance shown here: CQFQFQF What is its recorded Log10 Count Rate?
Output: 3.899

Input: Tell me the measured Log10 Count Rate of CKIKQII , please.
Output: 1.873

---

- Format: physicochemical
- condition set: ThT fluorescence relative to blank, blank = 42.1851851851852
observed property: Tht rel to blank (42.1851851851852)
Please give the numeric answer without any surrounding text.

Worked cases, Tht rel to blank (42.1851851851852) given:
Input: # input substance: KVKVQVVV [TG8] ; wanted: its Tht rel to blank (42.1851851851852)
Output: 0.8863

Input: So what's the measured Tht rel to blank (42.1851851851852) for this one? HHHHKIKIKIKIWWWW [TM4]
Output: 4.025

Input: Any idea what Tht rel to blank (42.1851851851852) was measured for CKIKQII [MG4a] ?
Output: 3.914

Input: What value of Tht rel to blank (42.1851851851852) has been reported for the following substance? KIKIQIII [TG7]
Output: 2.287

Input: Which value of Tht rel to blank (42.1851851851852) has been reported for CKFKQFF [CK15] in the records?
Output: 1.34

More entries:
Input: Reported Tht rel to blank (42.1851851851852) for RGDCKFKFQF [TM64/ CN15] : what is it?
Output: 6.788

Input: Endpoint output: Tht rel to blank (42.1851851851852) of KFKFKFQF [TG18] . Value?
Output: 41.89

Input: Query: Tht rel to blank (42.1851851851852); subject: CKFKQFFNM [CK14]
Output: 45.97

Input: So what's the measured Tht rel to blank (42.1851851851852) for this one? KFKFQFW [TM71]
Output: 3.529

Input: Query: Tht rel to blank (42.1851851851852); subject: KIKIQIW [TM69]
Output: 2.047

---

Here, each record is paired with measured Tht category (> 1.5 to blank = +) data.
- Assay type: physicochemical
- condition set: category 1/0

Input: Reported Tht category (> 1.5 to blank = +), substance CKAKAQANMWQ [BL8] : ____
Output: 0 (ThT-inactive (N-Fold <2))

Input: Using the record for CHLHLQL [CN9] , report its Tht category (> 1.5 to blank = +).
Output: 1 (ThT. Cat is 1, if Rel. ThT >2)

Input: Query: Tht category (> 1.5 to blank = +); subject: KFKQFFINMWQ [VH14]
Output: 0 (ThT-inactive (N-Fold <2))

Input: Suppose we examine the substance KYKYQY [KB1] ; what Tht category (> 1.5 to blank = +) value has been reported?
Output: 1 (ThT. Cat is 1, if Rel. ThT >2)

Input: If you can, please state the reported Tht category (> 1.5 to blank = +) value of KIKIQIII [TG7] .
Output: 1 (ThT. Cat is 1, if Rel. ThT >2)

Input: Dear colleague, I am looking for the recorded Tht category (> 1.5 to blank = +) of the following substance: KIKIQINMWWWQ [VH12]
Output: 0 (ThT-inactive (N-Fold <2))

Next:
Input: I have this substance here, CKIKQIINM [BL1] , and I need its recorded Tht category (> 1.5 to blank = +).
Output: 1 (ThT. Cat is 1, if Rel. ThT >2)

Input: Record request: Tht category (> 1.5 to blank = +) value, item KIKIQINM [JGB2]
Output: 0 (ThT-inactive (N-Fold <2))

Input: Which Tht category (> 1.5 to blank = +) is reported for this substance? RIRIQIC [PS07]
Output: 0 (ThT-inactive (N-Fold <2))

Input: Fill blank: measured Tht category (> 1.5 to blank = +) of the substance KFKFQFF [TG6] is ____.
Output: 1 (ThT. Cat is 1, if Rel. ThT >2)

Input: So what's the measured Tht category (> 1.5 to blank = +) for this one? KVKVQVV [TG2]
Output: 0 (ThT-inactive (N-Fold <2))

Input: Please give the measured Tht category (> 1.5 to blank = +) for this substance: RGDCKFKFQF [TM64/ CN15]
Output: 1 (ThT. Cat is 1, if Rel. ThT >2)

Input: Which value of Tht category (> 1.5 to blank = +) has been reported for RGECKFKFQF [CN16] in the records?
Output: 1 (ThT. Cat is 1, if Rel. ThT >2)

Input: Please look up its Tht category (> 1.5 to blank = +): CKFKFQFNMWQ [BL2]
Output: 1 (ThT. Cat is 1, if Rel. ThT >2)

Input: For the substance shown here, KIKIQIN [JGB3] , give the reported Tht category (> 1.5 to blank = +).
Output: 0 (ThT-inactive (N-Fold <2))

Input: So what does the record say about Tht category (> 1.5 to blank = +) for QCKIKQIINM [CK5] ?
Output: 1 (ThT. Cat is 1, if Rel. ThT >2)

Input: Fill blank: measured Tht category (> 1.5 to blank = +) of the substance CEFEFQFNMWQ [TM140] is ____.
Output: 1 (ThT. Cat is 1, if Rel. ThT >2)

---

- procedure text: Zeta-potential measurement
- Assay type: physicochemical
observed property: Zeta category ( +1 = if > 4 mV;-1 = if < -4 mV; 0 = -4mV to 4 mV)

Input: Name the recorded Zeta category ( +1 = if > 4 mV;-1 = if < -4 mV; 0 = -4mV to 4 mV) for KAKAQANM [TM152] .
Output: 0 (0 = -4mV to 4 mV)

Input: Fill blank: measured Zeta category ( +1 = if > 4 mV;-1 = if < -4 mV; 0 = -4mV to 4 mV) of the substance CEIEIQI [AR2/ TM142] is ____.
Output: -1 (-1 = if < -4 mV)

Input: What value of measured Zeta category ( +1 = if > 4 mV;-1 = if < -4 mV; 0 = -4mV to 4 mV) is listed for CKIKIQINM [MG2] ?
Output: 1 (+1 = if > 4 mV)

Input: # input substance: KIKIQINMWWWQ [VH12] ; wanted: its Zeta category ( +1 = if > 4 mV;-1 = if < -4 mV; 0 = -4mV to 4 mV)
Output: 1 (+1 = if > 4 mV)

Input: Record request: Zeta category ( +1 = if > 4 mV;-1 = if < -4 mV; 0 = -4mV to 4 mV) value, item KIKIQI [JJA4]
Output: -1 (-1 = if < -4 mV)

Input: Which measured Zeta category ( +1 = if > 4 mV;-1 = if < -4 mV; 0 = -4mV to 4 mV) value corresponds to RGEKIKIQINM [CN18] ?
Output: 1 (+1 = if > 4 mV)

Input: So what's the measured Zeta category ( +1 = if > 4 mV;-1 = if < -4 mV; 0 = -4mV to 4 mV) for this one? KAKAQA [JJA2 / TM153]
Output: -1 (-1 = if < -4 mV)

Input: State the recorded Zeta category ( +1 = if > 4 mV;-1 = if < -4 mV; 0 = -4mV to 4 mV) for this entry: KIKIQINMWQ [JG1]
Output: 1 (+1 = if > 4 mV)

Input: Return reported Zeta category ( +1 = if > 4 mV;-1 = if < -4 mV; 0 = -4mV to 4 mV); argument: KWKWQW [KB3]
Output: 1 (+1 = if > 4 mV)

Input: Quick one: Zeta category ( +1 = if > 4 mV;-1 = if < -4 mV; 0 = -4mV to 4 mV) of KVKVKVQV [JG14 / TG14] ?
Output: 0 (0 = -4mV to 4 mV)

Input: Param item = CSISIQI [TM141] ; retrieve measured Zeta category ( +1 = if > 4 mV;-1 = if < -4 mV; 0 = -4mV to 4 mV).
Output: -1 (-1 = if < -4 mV)

Input: Zeta category ( +1 = if > 4 mV;-1 = if < -4 mV; 0 = -4mV to 4 mV) lookup needed for KIKIQINMW [JGB1 /TM85] , thanks.
Output: 1 (+1 = if > 4 mV)

Input: Which Zeta category ( +1 = if > 4 mV;-1 = if < -4 mV; 0 = -4mV to 4 mV) is reported for this substance? KVKVQVVV [TG8]
Output: 0 (0 = -4mV to 4 mV)

Input: Need Zeta category ( +1 = if > 4 mV;-1 = if < -4 mV; 0 = -4mV to 4 mV) of RGDCKFKFQF [TM64/ CN15] , thanks.
Output: 1 (+1 = if > 4 mV)

Input: Fill blank: measured Zeta category ( +1 = if > 4 mV;-1 = if < -4 mV; 0 = -4mV to 4 mV) of the substance KAKAQANMWQ [JG3] is ____.
Output: -1 (-1 = if < -4 mV)

Input: Recorded Zeta category ( +1 = if > 4 mV;-1 = if < -4 mV; 0 = -4mV to 4 mV) for KFKFQFFF [TG12] , please?
Output: 1 (+1 = if > 4 mV)

Input: Fill in: Zeta category ( +1 = if > 4 mV;-1 = if < -4 mV; 0 = -4mV to 4 mV) of RGDKIKIQINMC [psis29] is ___
Output: 1 (+1 = if > 4 mV)
